Test system: Pseudomonas aeruginosa (ATCC27853)
Type: cell-based
Positions of bridges follow the written chain, without caps; N, C: chain ends. Residues, ends and D or L forms follow the SMILES beside them.
Below, each entry is listed alongside its reported MBC P. aeruginosa.

Recorded MBC P. aeruginosa, per entry:
// returns reported MBC P. aeruginosa for input CC[C@H](C)[C@@H]1NC(=O)[C@H](C)NC(=O)[C@@H](NC(=O)[C@H](Cc2ccccc2)NC(=O)[C@@H](NC(=O)[C@H](CCCCN)NC(=O)[C@@H]2CCCN2C(=O)[C@H](CC(C)C)NC(=O)[C@H](Cc2ccccc2)NC(=O)[C@H](CCCCN)NC(=O)[C@@H](N)CCCCN)[C@@H](C)CC)CSSC[C@@H](C(=O)O)NC(=O)[C@H](CCCCN)NC(=O)[C@H](CCCCN)NC(=O)[C@H]([C@@H](C)O)NC1=O [KKB2] (H-KKFLPKIFCAITKKC-OH; disulfide 9-15)
> 512 µM

Further, for CC[C@H](C)[C@@H]1NC(=O)[C@H](C)NC(=O)[C@@H](NC(=O)[C@H](CCCCN)NC(=O)[C@H](C)NC(=O)[C@H](C)NC(=O)[C@H](CC(C)C)NC(=O)CNC(=O)[C@H](C)NC(=O)[C@@H](NC(=O)[C@H](CC(C)C)NC(=O)[C@@H]2CCCN2C(=O)[C@H](CC(C)C)NC(=O)[C@@H](N)Cc2ccccc2)[C@@H](C)CC)CSSC[C@@H](C(=O)O)NC(=O)[C@H](CCCCN)NC(=O)[C@H](CCCCN)NC(=O)[C@H]([C@@H](C)O)NC1=O [Peptide B1A1] (H-FLPLIAGLAAKCAITKKC-OH; disulfide 12-18) ?
> 512 µM

---
// returns reported MBC P. aeruginosa for input CC[C@H](C)[C@@H]1NC(=O)[C@H](C)NC(=O)[C@@H](NC(=O)[C@H](Cc2ccccc2)NC(=O)[C@@H](NC(=O)[C@H](CCCCN)NC(=O)[C@@H]2CCCN2C(=O)[C@H](CC(C)C)NC(=O)[C@H](Cc2ccccc2)NC(=O)[C@@H](N)CCCCN)[C@@H](C)CC)CSSC[C@@H](C(=O)O)NC(=O)[C@H](CCCCN)NC(=O)[C@H](CCCCN)NC(=O)[C@H]([C@@H](C)O)NC1=O [KB2] (H-KFLPKIFCAITKKC-OH; disulfide 8-14)
> 512 µM

Further, for CC[C@H](C)[C@@H]1NC(=O)[C@H](C)NC(=O)[C@@H](NC(=O)[C@H](Cc2ccccc2)NC(=O)[C@@H](NC(=O)[C@H](CCCCN)NC(=O)[C@@H]2CCCN2C(=O)[C@H](CC(C)C)NC(=O)[C@@H](N)Cc2ccccc2)[C@@H](C)CC)CSSC[C@@H](C(=O)O)NC(=O)[C@H](CCCCN)NC(=O)[C@H](CCCCN)NC(=O)[C@H]([C@@H](C)O)NC1=O [Peptide B1A2] (H-FLPKIFCAITKKC-OH; disulfide 7-13) ?
> 512 µM
